biological target: rat µ opioid receptor (rat, UniProt P33535 1-398); assay: cell-based or functional assay
Sequence (P33535 whole entry): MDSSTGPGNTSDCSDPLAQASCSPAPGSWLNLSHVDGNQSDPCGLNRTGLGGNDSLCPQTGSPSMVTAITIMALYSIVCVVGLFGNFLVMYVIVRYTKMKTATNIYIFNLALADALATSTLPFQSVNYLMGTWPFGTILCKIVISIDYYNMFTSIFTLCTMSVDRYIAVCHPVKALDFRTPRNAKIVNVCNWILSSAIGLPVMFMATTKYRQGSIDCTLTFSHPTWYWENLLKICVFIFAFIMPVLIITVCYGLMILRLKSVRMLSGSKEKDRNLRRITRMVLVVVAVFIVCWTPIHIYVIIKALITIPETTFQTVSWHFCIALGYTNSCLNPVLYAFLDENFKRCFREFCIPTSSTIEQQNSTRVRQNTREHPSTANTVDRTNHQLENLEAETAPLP
Square brackets hold non-standard residues; d marks the D form. Ends that are not written are not given here. * marks the point of attachment. OBzl(3,5-(CF3)2) = FC(F)(F)c1cc(CO*)cc(C(F)(F)F)c1
Parameter GTP binding Emax: see the listing below.
API: value field is a number in %; no unit string.

Y[dA]GFLPLW-{OBzl(3,5-(CF3)2)} (also called TY004) [TyrDAlaGlyPheLeuProLeuTrpOBn(CF3)2] :: 44.5
Y[dA]GF[dF]PLW-{OBzl(3,5-(CF3)2)} (also called TY007) [TyrDAlaGlyPheDPheProLeuTrpOBn(CF3)2] :: 23.6
Y[dA]GFFPLW-{OBzl(3,5-(CF3)2)} (also called TY003) [TyrDAlaGlyPhePheProLeuTrpOBn(CF3)2] :: 36.3
Y[dA]GFMPLW-{OBzl(3,5-(CF3)2)} (also called TY005) [TyrDAlaGlyPheMetProLeuTrpOBn(CF3)2] :: 45.6

// switching to the query binder
The value of GTP binding Emax measured for the binder Y[dA]GFGPLW-{OBzl(3,5-(CF3)2)} (also: TFA salt, also called TY006) [TyrDAlaGlyPheGlyProLeuTrpOBn(CF3)2] turned out to be 35.9
